- Tested on: A549 NSCLC
- Test details: NCI tumour cell line growth inhibition, 48 h
Give measured TGI for each item. Keep answers brief.

Give TGI for CCCC1=C(OC)C(=O)c2c(C)cc(Cl)nc2C1=O
26.9 µM

Give TGI for COc1cc2c(cc1OC)C(C(CBr)CBr)N(C1CCCC1)CC2 (stereo unspecified)
> 100 µM

Give TGI for COc1cc2c3c(n(C)c(=O)c2cc1OC)-c1cc2c(cc1/C3=C\CCCCCBr)OCO2
> 100 µM

Give TGI for CC(C)=Cc1cc(C)c2ccc(C)c3c2c1C(C)=C(O)C3=O
> 100 µM

Give TGI for C1CSC[C@H]2COC[C@@H](CSCCS1)S2
> 100 µM

Give TGI for CC(/C=C/C(=O)c1sc(C(N)=S)nc1C)=C\c1ccccc1
> 100 µM

Give TGI for O=C1Nc2cccc(Cl)c2/C1=C\c1c(-c2ccccc2)nc2n1CCS2
49.1 µM

Give TGI for COc1c(C)c(C/C=C(\C)CCCC(C)CCCC(C)CCCC(C)C)c(OC)c2ccccc12 (stereo unspecified)
> 100 µM

Give TGI for Cn1c2ccccc2n2c3ncccc3c(=O)cc12
> 100 µM

Give TGI for O=C1OC(=O)C23CSCC12C1C=CC3O1 (stereo unspecified)
> 100 µM

Give TGI for CC(C)=Cc1cc(CCC/C(C)=C/Cc2c(O)cc(C)c(C(=O)O)c2O)co1
> 100 µM

---

- Test system: HT29 colon
- Test details: NCI tumour cell line growth inhibition, 48 h
Give measured TGI for each item. Keep answers brief.

Give TGI for COc1cc(Cl)c(CC(=O)c2c[nH]c3ccccc23)cc1OC
> 100 µM

Give TGI for O=C1NC(=O)C(c2cccc(Cl)c2)=C1Nc1ccc(Cl)c(C(=O)O)c1
> 25 µM

Give TGI for O=C1N2CCC[C@H]2CS1(=O)=O
75.1 µM

Give TGI for CC(=O)CC(=O)N1CCSC1=S
> 10 µM

Give TGI for O=Nc1c(-c2c(O)[nH]c3ccc(I)cc23)[nH]c2ccccc12
> 21.6 µM

Give TGI for COc1cc(S(=O)(=O)Nc2ccc(-c3csc(N4C(=O)C(Cl)C4c4ccccc4O)n3)cc2)ccc1Cl (centres undefined)
> 100 µM

Give TGI for c1ccc2c[n+](CCCC[n+]3ccc4ccccc4c3)ccc2c1
> 100 µM

Give TGI for O=C1C(N2CCN(CCOCCO)CC2)=C(Cl)C(=O)c2ncccc21
46 µM

Give TGI for CC12CCC(=O)C(O1)C1C(=O)c3ccc4c(ccc5ccccc54)c3C(=O)C12 (centres undefined)
> 100 µM

Give TGI for CC(C)[P+](c1ccccc1)(c1ccccc1)c1ccccc1
> 100 µM

Give TGI for COc1ccc(-c2cc3ccccc3[nH]c2=O)cc1OC
> 100 µM

Give TGI for C=CC1C(CC2OC(CO)C(O)C(O)C2O)OC=C2C(=O)OCCC21O (centres undefined)
8.02 µM

Give TGI for Cc1cc(=O)[nH]c(NNC(C#N)c2ccccc2O)n1 (centres undefined)
> 100 µM

Give TGI for Cc1ccc2oc(=O)c3c(O)c4cccc(OC5OC(C)C6O[C@@H](c7ccccc7)OC6C5OC5OC(C)C(O)C(O)C5O)c4c4oc(=O)c1c2c34 (some centres undefined)
5.12 µM

Give TGI for O=CC(O)C(O)C(O)C(O)COC(=O)NCCCCC(=O)C(F)(F)C(F)(F)C(F)(F)C(F)(F)C(F)(F)C(F)(F)C(F)(F)F (centres undefined)
> 100 µM

Give TGI for NC(N)=NC(N)=Nc1ccc(C(=O)O)cc1
> 100 µM

Give TGI for FC(F)c1ncc(-c2ccc(C(F)(F)F)cc2)c(NC2CCCCCC2)n1
> 10 µM

Give TGI for NC1=NC(SCc2ccccc2CCl)c2ncn(Cc3ccccc3CCl)c2N1 (centres undefined)
4.01 µM

Give TGI for O=C1CS/C(=N/S(=O)(=O)c2ccc(N3N=C4c5ccccc5CC4C3c3cccs3)cc2)N1C(=O)c1ccccc1 (centres undefined)
> 100 µM
